FYI, the data here is from PubChem BioAssay (NCATS).

# Tested on: Rap guanine nucleotide exchange factor 4 (Homo sapiens) (UniProt Q8WZA2)
# Sequence (Q8WZA2 whole entry, looked up): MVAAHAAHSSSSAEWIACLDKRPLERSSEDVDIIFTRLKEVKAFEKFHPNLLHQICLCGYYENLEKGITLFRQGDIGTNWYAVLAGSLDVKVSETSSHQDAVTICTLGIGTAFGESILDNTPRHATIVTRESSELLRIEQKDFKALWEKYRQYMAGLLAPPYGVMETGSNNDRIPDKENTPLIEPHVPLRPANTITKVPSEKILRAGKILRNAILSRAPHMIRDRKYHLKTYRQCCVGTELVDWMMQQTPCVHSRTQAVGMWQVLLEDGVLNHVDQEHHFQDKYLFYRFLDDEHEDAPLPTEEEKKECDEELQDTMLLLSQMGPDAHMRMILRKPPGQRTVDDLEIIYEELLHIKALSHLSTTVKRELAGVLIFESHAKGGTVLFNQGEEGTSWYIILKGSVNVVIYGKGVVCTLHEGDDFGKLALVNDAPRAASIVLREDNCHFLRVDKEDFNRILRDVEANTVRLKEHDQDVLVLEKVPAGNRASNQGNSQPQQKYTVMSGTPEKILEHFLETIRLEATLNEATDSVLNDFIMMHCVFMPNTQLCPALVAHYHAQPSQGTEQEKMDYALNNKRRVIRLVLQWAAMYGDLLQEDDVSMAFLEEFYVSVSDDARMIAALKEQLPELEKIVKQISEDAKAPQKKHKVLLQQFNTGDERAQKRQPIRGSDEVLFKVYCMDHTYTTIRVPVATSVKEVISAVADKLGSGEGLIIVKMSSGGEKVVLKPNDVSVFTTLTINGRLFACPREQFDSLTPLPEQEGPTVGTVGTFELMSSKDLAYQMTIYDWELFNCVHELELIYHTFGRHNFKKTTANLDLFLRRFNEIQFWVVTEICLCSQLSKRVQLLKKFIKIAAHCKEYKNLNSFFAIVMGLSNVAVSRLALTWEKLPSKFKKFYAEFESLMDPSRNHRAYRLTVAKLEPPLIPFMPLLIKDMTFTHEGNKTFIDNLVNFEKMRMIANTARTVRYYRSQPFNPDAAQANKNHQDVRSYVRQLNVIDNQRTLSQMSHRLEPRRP
# Procedure summary: Confirmatory qHTS for antagonist of cAMP-regulated guanine nucleotide exchange factor 4 (EPAC2) (AID 1645885); also: nearly all actives have a fitted effect of over 25% in size
# Test context: EPAC2 Rap1B-BODIPY-GDP exchange fluorescence, biochemical; series mostly up to 114 µM
Records with an inconclusive call do not appear. Calls of active or inactive are those of the source. Calls follow the shape of the dose curve; as a rule, active = well fitted inhibition curve with a large enough effect; inconclusive = small, poorly fitted or top-dose-only effect; inactive = no such curve, though single readings can be large or run the other way.
Field 'call' accepts label 1 (active), label 0 (inactive)

Illustrative cases are given below, each with its answer.
| Compound | Class |
| --- | --- |
| NC(Cc1ccc(O)c(O)c1)C(=O)O (stereo unspecified) | label 1 |
| COc1cccc(-c2nc(Nc3ccncc3)c3ccccc3n2)c1 | label 0 |
| c1ccc(CNc2ccnc(-c3ccc4c(c3)OCO4)n2)cc1 | label 0 |
| COc1cccc(Cn2c(=O)c(-c3ccc(Cl)cc3)nc3cnc(N4CCNCC4)nc32)c1 | label 1 |
| O=c1c(-c2ccccc2)coc2cc(O)cc(O)c12 | label 0 |
| COc1ccccc1CNc1nc(-c2ccc3c(c2)OCO3)nc2ccccc12 | label 0 |
| Nc1nc2n[nH]nc2c(=O)[nH]1 | label 0 |
| O=C(c1cccc(F)c1)N1CCC[C@@]2(CCN(C(c3ccccc3)c3ccccc3)C2)C1 | label 0 |

So what was the verdict on `COc1ccc(-c2nc3cnc(Nc4cccc(OC)c4)nc3n(CCC#N)c2=O)cc1` in this test?
label 0

So what was the verdict on O=c1c(O)c(-c2ccc(O)c(O)c2)oc2c(OC3OC(CO)C(O)C(O)C3O)c(O)cc(O)c12 (stereo unspecified) in this test?
label 0

So what was the verdict on `O=c1c(-c2cccs2)nc2cnc(Nc3ccccc3)nc2n1C[C@H]1CCCO1` in this test?
label 0

###

# Tested on: Cytochrome P450 3A4 (Homo sapiens) (UniProt P08684)
# Sequence (P08684 whole entry, looked up): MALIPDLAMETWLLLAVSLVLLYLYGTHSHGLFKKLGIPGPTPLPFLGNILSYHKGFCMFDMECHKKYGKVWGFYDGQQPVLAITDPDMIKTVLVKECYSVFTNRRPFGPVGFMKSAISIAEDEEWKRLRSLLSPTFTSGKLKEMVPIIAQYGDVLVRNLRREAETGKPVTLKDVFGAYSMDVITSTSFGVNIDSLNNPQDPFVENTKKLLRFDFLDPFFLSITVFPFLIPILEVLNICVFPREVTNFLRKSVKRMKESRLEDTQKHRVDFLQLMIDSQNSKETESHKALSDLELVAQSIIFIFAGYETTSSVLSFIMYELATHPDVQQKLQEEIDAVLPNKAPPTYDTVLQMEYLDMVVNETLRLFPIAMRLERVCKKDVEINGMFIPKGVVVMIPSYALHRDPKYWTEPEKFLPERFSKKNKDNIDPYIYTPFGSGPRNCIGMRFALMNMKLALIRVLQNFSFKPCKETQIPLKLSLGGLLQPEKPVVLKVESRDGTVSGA
# Procedure summary: qHTS Assay for Activators of Cytochrome P450 3A4 (AID 885); also: nearly all actives have a fitted effect of over 65% in size
# Test context: recombinant CYP3A4, Luciferin-PPXE luminescence, 60 min; series mostly up to 57.1 µM
The source made the active and inactive calls. The call rests on the fitted dose curve; in most records, active means well fitted activation curve with a large enough effect; inconclusive means small, poorly fitted or top-dose-only effect; inactive means no such curve, though single readings can be large or run the other way.
Field 'call' accepts t (active), f (inactive)

Illustrative cases are given below, each with its answer.
| Smiles structure | Class |
| --- | --- |
| Cn1c(=O)c(-c2ccc(Cl)cc2)nc2cnc(N3CCNCC3)nc21 | f |
| Cc1ccccc1[C@@H](OCCN(C)C)c1ccccc1 | f |
| N#CCCn1c(=O)c(-c2ccc(Cl)cc2)nc2cnc(N3CCNCC3)nc21 | f |
| Cn1c(=O)c(-c2ccccc2)nc2cnc(OCc3ccccc3)nc21 | f |
| c1ccc2c(Nc3ccncc3)nc(-c3ccoc3)nc2c1 | f |

So what was the verdict on `C=CCNC(=O)c1cc([N+](=O)[O-])cc2c(=O)[nH]c(Nc3ccc(Cl)c(Cl)c3)nc12` in this test?
f

So what was the verdict on `N#Cc1ccc(CN2CCCC3(CCN(S(=O)(=O)c4ccccc4)CC3)C2)cc1` in this test?
f

So what was the verdict on `Clc1ccccc1-c1nc(NCc2cccs2)c2ccccc2n1` in this test?
f

So what was the verdict on `CS(=O)(=O)N1CCC2(CCCN(C(c3ccccc3)c3ccccc3)C2)CC1` in this test?
f

So what was the verdict on `COc1ccc2[nH]cc(CCNc3ccnc(-c4ccoc4)n3)c2c1` in this test?
f

So what was the verdict on `Cc1cccc(CNc2ncnc3ccc(-c4c(C)noc4C)cc23)c1` in this test?
f

So what was the verdict on `CN(C)C(=O)c1ccc(-c2nccc(Nc3ccc(F)cc3)n2)cc1` in this test?
f

So what was the verdict on `CCNc1ncc2nc(-c3ccccc3)c(=O)n(Cc3cccc(OC)c3)c2n1` in this test?
f

So what was the verdict on `O=C(CCCc1ccc(-c2ccccc2F)cc1)Nc1ccc(O)cc1` in this test?
f

###

# Tested on: Ubiquitin carboxyl-terminal hydrolase 1 (Homo sapiens) (UniProt O94782)
# Sequence (O94782 whole entry, looked up): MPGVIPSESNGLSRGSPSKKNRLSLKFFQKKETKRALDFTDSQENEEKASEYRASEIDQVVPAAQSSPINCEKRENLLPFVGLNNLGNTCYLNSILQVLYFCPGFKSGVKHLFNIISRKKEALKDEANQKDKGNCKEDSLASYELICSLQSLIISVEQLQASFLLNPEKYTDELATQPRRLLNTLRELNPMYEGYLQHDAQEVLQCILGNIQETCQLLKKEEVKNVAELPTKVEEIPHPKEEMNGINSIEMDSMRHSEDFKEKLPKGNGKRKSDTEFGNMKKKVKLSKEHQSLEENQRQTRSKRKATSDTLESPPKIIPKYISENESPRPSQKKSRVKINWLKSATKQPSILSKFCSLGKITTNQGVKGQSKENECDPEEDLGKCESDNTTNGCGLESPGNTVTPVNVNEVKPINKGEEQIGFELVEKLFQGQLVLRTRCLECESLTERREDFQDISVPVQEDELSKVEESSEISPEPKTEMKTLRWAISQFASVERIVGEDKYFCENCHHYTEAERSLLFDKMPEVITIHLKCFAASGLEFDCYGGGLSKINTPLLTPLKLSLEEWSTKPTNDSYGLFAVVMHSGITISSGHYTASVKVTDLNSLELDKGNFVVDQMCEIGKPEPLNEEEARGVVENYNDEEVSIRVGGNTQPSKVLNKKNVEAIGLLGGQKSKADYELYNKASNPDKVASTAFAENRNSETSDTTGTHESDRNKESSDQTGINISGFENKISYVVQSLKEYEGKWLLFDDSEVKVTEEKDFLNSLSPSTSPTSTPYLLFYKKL
# Procedure summary: Inhibitors of USP1/UAF1: Pilot qHTS (AID 504865); also: nearly all actives have a fitted effect of over 35% in size
# Test context: purified USP1/UAF1, Ub-rhodamine cleavage fluorescence; series mostly up to 54.9 µM
Records with an inconclusive call do not appear. The source made the active and inactive calls. Calls come from the whole dose curve; as a rule, active = well fitted inhibition curve with a large enough effect; inconclusive = small, poorly fitted or top-dose-only effect; inactive = flat fitted curve, though single readings scatter.
Field 'call' accepts active, inactive

So what was the verdict on `Cc1cccc(CNc2ccnc(-c3ccccc3C(F)(F)F)n2)c1` in this test?
active

So what was the verdict on `Cc1noc(C)c1-c1ccc2ncnc(N(C)Cc3ccco3)c2c1` in this test?
inactive

So what was the verdict on `c1cc(NC2CC2)nc(-c2ccoc2)n1` in this test?
inactive

So what was the verdict on `O=C(c1ccccc1)c1ccc2n1CC[C@H]2C(=O)O` in this test?
inactive

So what was the verdict on `CN1CCN(c2ncc3ncc(=O)n(-c4ccccc4)c3n2)CC1` in this test?
inactive

So what was the verdict on `CN(C)CC[C@@H](c1ccccc1)c1ccccn1` in this test?
inactive

So what was the verdict on `CCNc1ncc2nc(-c3ccc(Cl)cc3)c(=O)n(-c3ccc(OC)cc3)c2n1` in this test?
inactive

So what was the verdict on `COc1ccc(CNc2ncncc2-c2ccc(C(=O)N(C)C)cc2)c(OC)c1` in this test?
inactive

So what was the verdict on `CN1CCN(c2ncc3ncc(=O)n(CCc4ccccc4)c3n2)CC1` in this test?
inactive

So what was the verdict on `COc1ccc(Oc2ncc3nc(-c4ccc(F)cc4)c(=O)n(C4CC4)c3n2)cc1` in this test?
inactive

So what was the verdict on `COc1ccccc1CNc1ncnc2ccc(-c3cccc(C#N)c3)cc12` in this test?
inactive

###

# Tested on: Lysosomal acid glucosylceramidase (Homo sapiens) (UniProt P04062)
# Sequence (P04062 whole entry, looked up): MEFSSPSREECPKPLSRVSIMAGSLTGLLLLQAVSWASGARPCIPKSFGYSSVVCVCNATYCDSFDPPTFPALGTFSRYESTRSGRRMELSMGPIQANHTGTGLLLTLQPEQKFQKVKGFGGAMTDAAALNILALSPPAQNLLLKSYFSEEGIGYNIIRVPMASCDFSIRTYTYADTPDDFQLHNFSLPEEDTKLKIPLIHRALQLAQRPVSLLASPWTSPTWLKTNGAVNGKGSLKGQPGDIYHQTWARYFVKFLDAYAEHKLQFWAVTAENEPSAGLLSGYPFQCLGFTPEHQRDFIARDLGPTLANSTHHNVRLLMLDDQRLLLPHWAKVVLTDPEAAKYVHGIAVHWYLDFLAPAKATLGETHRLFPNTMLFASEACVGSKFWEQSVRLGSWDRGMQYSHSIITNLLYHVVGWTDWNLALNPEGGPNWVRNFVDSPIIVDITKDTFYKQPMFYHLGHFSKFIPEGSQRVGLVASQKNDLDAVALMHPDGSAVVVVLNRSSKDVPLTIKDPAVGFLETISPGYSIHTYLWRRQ
# Procedure summary: Glucocerebrosidase-p2 (AID 348); also: potency is read from the fitted curve at half-maximal effect
# Test context: purified GBA, blue fluorogenic substrate, 40 min
Calls of active or inactive are those of the source. Rule as the data show it: active = potency below about 10 µM; inactive = the rest.
Measure: Potency

| Smiles structure | Potency |
| --- | --- |
| CN1CCCC2(CCN(C(=O)c3cc(C(F)(F)F)cc(C(F)(F)F)c3)CC2)C1 | > 11.4 µM (inactive) |
| COCCn1c(=O)c(-c2cccs2)nc2cnc(OC)nc21 | > 11.4 µM (inactive) |
| COc1ccc(-n2c(=O)c(-c3ccc(F)cc3)nc3cnc(N4CCNCC4)nc32)cc1 | > 11.4 µM (inactive) |
| Cc1noc(C)c1C(=O)N1CCC2(CCN(Cc3ccccc3)CC2)CC1 | > 11.4 µM (inactive) |
| CN1CCCC2(CCN(S(=O)(=O)c3ccccc3)CC2)C1 | > 11.4 µM (inactive) |
| CC(=O)N1CCC2(CC1)CN(Cc1cc(C(F)(F)F)cc(C(F)(F)F)c1)C2 | > 11.4 µM (inactive) |

Quote Potency reported for `N#Cc1cccc(-c2cc(NCc3cccnc3)ncn2)c1` please.
> 11.4 µM (inactive)

Quote Potency reported for `COc1ncc2nc(-c3cn(C)c4ccccc34)c(=O)n(CCc3ccccc3)c2n1` please.
> 11.4 µM (inactive)

Quote Potency reported for `O=C(c1csnn1)N1CCC2(CCCN(c3cccc(-c4ccccc4)c3)C2)CC1` please.
> 11.4 µM (inactive)

Quote Potency reported for `CN1CCN(c2ncc3nc(-c4ccccc4)c(=O)n(CCC#N)c3n2)CC1` please.
> 11.4 µM (inactive)

Quote Potency reported for `O=C(c1cc(C(F)(F)F)cc(C(F)(F)F)c1)N1CCC2(CCCN(Cc3ccccc3)C2)CC1` please.
> 11.4 µM (inactive)

Quote Potency reported for `c1cncc(-c2cc(-n3ccnc3)ncn2)c1` please.
> 11.4 µM (inactive)

Quote Potency reported for `O=C(c1ccncc1)N1CCC[C@@]2(CCN(C(c3ccccc3)c3ccccc3)C2)C1` please.
> 11.4 µM (inactive)

###

# Tested on: Cytochrome P450 3A4 (Homo sapiens)
# Procedure summary: qHTS Assay for Inhibitors and Substrates of Cytochrome P450 3A4 (AID 884); also: nearly all actives have a fitted effect of over 50% in size
# Test context: recombinant CYP3A4, Luciferin-PPXE luminescence; series mostly up to 57.1 µM
Results filed as inconclusive are left out. The source made the active and inactive calls. Calls come from the whole dose curve; as a rule, active = well fitted inhibition curve with a large enough effect; inconclusive = small, poorly fitted or top-dose-only effect; inactive = no such curve, though single readings can be large or run the other way.
Field 'call' accepts active, inactive

| Smiles structure | Class |
| --- | --- |
| COc1cccc(Cn2c(=O)c(-c3cn(C)c4ccccc34)nc3cnc(OC)nc32)c1 | active |
| CCCCCC/C=C\CCCCCCCc1cccc(O)c1C(=O)O | inactive |
| COc1ccc2[nH]cc(CCNc3ncncc3-c3cccnc3)c2c1 | active |
| COc1cccc(-c2ccc3ncnc(NC4CC4)c3c2)c1 | active |
| CC(C)N1CCN(c2ccc(OC[C@@H]3CO[C@@](Cn4cncn4)(c4ccc(Cl)cc4Cl)O3)cc2)CC1 | active |
| O=C(c1ccncc1)N1CCC2(CC1)CN(Cc1cc(C(F)(F)F)cc(C(F)(F)F)c1)C2 | active |
| O=C(Oc1ccccc1)N1CCC2(CC1)CN(c1ncccn1)C2 | inactive |
| CS(=O)(=O)Nc1cccc(-c2nc(N3CCOCC3)c3ccccc3n2)c1 | active |

So what was the verdict on `O=C(c1cccc(F)c1)N1CCC2(CC1)CCN(c1ccc(-c3ccccc3)cc1)CC2` in this test?
inactive

So what was the verdict on `CN(C)C(=O)c1ccc(-c2cncnc2NCc2cccnc2)cc1` in this test?
active
